Molecular target: furin, P09958;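 further: purified furin at 1:10 enzyme:substrate in 50 mM HEPES pH 7.5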
Sequence (P09958 whole entry): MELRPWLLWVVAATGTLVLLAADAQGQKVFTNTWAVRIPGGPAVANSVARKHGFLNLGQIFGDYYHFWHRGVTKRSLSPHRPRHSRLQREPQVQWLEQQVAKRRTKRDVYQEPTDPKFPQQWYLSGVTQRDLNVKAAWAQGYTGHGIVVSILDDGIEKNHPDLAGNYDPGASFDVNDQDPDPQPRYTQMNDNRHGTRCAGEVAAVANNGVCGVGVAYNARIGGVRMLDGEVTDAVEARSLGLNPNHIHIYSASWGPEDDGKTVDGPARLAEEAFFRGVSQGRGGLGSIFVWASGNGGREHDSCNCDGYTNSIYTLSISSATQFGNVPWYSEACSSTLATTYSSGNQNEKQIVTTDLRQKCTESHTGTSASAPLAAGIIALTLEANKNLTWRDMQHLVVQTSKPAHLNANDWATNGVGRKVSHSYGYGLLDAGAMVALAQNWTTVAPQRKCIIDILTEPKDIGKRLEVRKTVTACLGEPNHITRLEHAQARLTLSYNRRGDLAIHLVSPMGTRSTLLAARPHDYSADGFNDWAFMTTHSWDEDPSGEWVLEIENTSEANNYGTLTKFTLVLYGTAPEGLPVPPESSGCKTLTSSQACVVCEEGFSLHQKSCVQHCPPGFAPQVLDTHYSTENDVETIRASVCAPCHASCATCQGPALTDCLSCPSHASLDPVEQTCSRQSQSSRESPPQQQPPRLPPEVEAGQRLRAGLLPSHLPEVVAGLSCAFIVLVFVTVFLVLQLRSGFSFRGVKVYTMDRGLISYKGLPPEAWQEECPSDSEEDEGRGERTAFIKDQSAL
Test: furin cleavage Z-score vs untreated control; higher = more cleavage, active = 3.5 or more, inactive = 1 or less, 8 variable residues between constant flanks
Conditions: 15 min
The other results are listed elsewhere or left out. No count for the full screen is at hand.
Outcomes: active, inactive

{"residue_sequence": "CARTKRAQSPAGNASASA [FS-2824]", "class_label": "active"}
{"residue_sequence": "CAESAGVQEDAGNASASA [HC1533]", "class_label": "inactive"}
{"residue_sequence": "CAAILSPGALAGNASASA [HC1103]", "class_label": "inactive"}
{"residue_sequence": "CATGDFDSVIAGNASASA [HC883]", "class_label": "inactive"}
{"residue_sequence": "CANEITLTHPAGNASASA [HC977]", "class_label": "inactive"}
